Tested on: Fis (His-tagged) (Pseudomonas putida), ORF:eb421da7
Sequence: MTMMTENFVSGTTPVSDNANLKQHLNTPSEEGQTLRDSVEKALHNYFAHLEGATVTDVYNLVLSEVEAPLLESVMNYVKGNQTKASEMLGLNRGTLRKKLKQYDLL
assay.summary: EMSA with competition
particulars: EMSA: 24 mM Tris/HCl pH 7.5, 50 mM KCl, 10 mM MgCl2, 1 mM CaCl2, 0.1 mM EDTA, 5% glycerol, 0.05 ug/ul BSA, 0.05 ug/ul salmon sperm DNA, 20 min room …
experimental.readout: binding

Worked examples follow.
# sequence.string, measured
measured = [
    ("GGTACTTCCCTGCCAGAGCGGCGCTTGCTAGCCACTTCAGGCGGAACTATGTCGATGATCTCTTGACGTTTTTGACGTCAATATTCCGTCTATAACTTTTTGGAATTGCCTGACTGCCAAACTATTGACCTTATACATGCCATCCTAAACAATCGGCAATGTAATGTCACATTGATATTTGTACCTTAGCCAAGCGTTTCGGATCCT (double strand) [lapA Fis-A1/Fis-A2 fragment WT]", "binds"),
    ("TTTGGATCCGAGTCACAAGCAGCTATGTGTCGCAAATCAAAGAGATGACCGACGAGTGCGTGAATAATGGTATCCCGATCATTGAAAATCGCTTGCGGAGGCTGACTGGGAGAAGGCAAGAATCCGCACTCTATAGATGAATTTTGACTAACAAGCCACAGATATGCGCCAACAAACCAGCGCCTGTTTACTGACAGTGACTAAGCTGGAACCCAAAGCCCTTGCATGAATTCAA (double strand) [Fis-A5mut-Fis-A6 fragment]", "binds more weakly"),
    ("TTGAATTCATGCAAGGGCTTTGGGTTCCAGCTTAGTCACTGTCAGTAAACAGGCGCTGGTTTGTTGGCGCATATCTGTGGCTTGTTAGTCAAAATTCATCTATAGAGTGCGGATTCTTGCCTTCTTGCATTCAATATCCGCAAGCGATTTTCAATGATCGGGATACCATTATTCACGCACTCGTCGGTCATCTCTTTGATTTGCGACACATAGCTGCTTGTGACTCGGATCCAAA (double strand) [lapA Fis-A5/Fis-A6 fragment WT]", "binds"),
    ("TGCTGATAAGGGTTATCACGCCCTGGTGCTGGAGCAGCTGGCCAATGTTCGCCTTGAATCGGTGTTGAGTAAACAATTCTACGTGCTTCATTTTCACCAGACTTAGCGGGGCAATGATTGTTTCATTTTTGATCCAGCCATCATCCGGCTTGTTGCAGCATAGCCTGCCACTCAGCCAAGGCATGCAAGGGCTTTGGGTTCCAGCTTAGTCACTGTCAGTAAACAGGCGCTGGATCCA (double strand) [lapA Fis-A7 fragment WT]", "binds"),
]

Attention now shifts to the item below.
Task: So what does the record say about binding for TGCTGATAAGGGTTATCACGCCCTGGTGCTGGAGCAGCTGGCCAATGTTCGCCTTGAATCGGTGTTGAGTAAACAATTCTACGTGCTTCATTTTCACCAGACTTAGCGGGGCAATGATTCTGACAGGCCTGATCCAGCCATCATCCGGCTTGTTGCAGCATAGCCTGCCACTCAGCCAAGGCATGCAAGGGCTTTGGGTTCCAGCTTAGTCACTGTCAGTAAACAGGCGCTGGATCCA (double strand) [Fis-A7mut fragment] ?
Output: binds more weakly
